Exercise: state measured pEC50 for each of the molecules provided.
- System: whole cells (NMuLi, C2C12, and L6 cells, isolated cardiomyocytes, human primary fibroblasts)
- Assay Text: Oxygen consumption rate (OCR) in whole cells, Seahorse XF-24 Flux Analyzer
- Format: cell-based
- Test Context: increase in OCR; binned EC50 values
pEC50: −log10 of the molar value.

Query block: Item under review: Oc1nc2nonc2nc1Nc1cccc(-c2cccc(C(F)(F)F)c2)c1 [1-135] . Reported pEC50?
Result block: ≥ 5.30

Query block: Item under review: Oc1nc2nonc2nc1Nc1cccc(-c2ccc(F)cc2)c1 [1-134] . Reported pEC50?
Result block: ≥ 5.30

Query block: Item under review: Oc1nc2nonc2nc1Nc1ccc(OC(F)(F)F)c(Cl)c1 [1-24] . Reported pEC50?
Result block: ≥ 5.30

Query block: Item under review: Cc1ccc(-c2cccc(Nc3nc4nonc4nc3O)c2)cc1 [1-132] . Reported pEC50?
Result block: ≥ 5.30

Query block: Item under review: COc1cc(-c2ccc(Nc3nc4nonc4nc3O)cc2)ccc1F [1-128] . Reported pEC50?
Result block: < 4.70

Query block: Item under review: CCCCc1ccc(Nc2nc3nonc3nc2O)cc1 [1-54] . Reported pEC50?
Result block: ≥ 5.30

Query block: Item under review: Oc1nc2nonc2nc1Nc1cccc(S(F)(F)(F)(F)F)c1 [1-31] . Reported pEC50?
Result block: ≥ 5.30

Query block: Item under review: Oc1nc2nonc2nc1Nc1cc(C(F)(F)F)ccc1F [1-17] . Reported pEC50?
Result block: 4.70 to 5.30

Query block: Item under review: Oc1nc2nonc2nc1Nc1cccc(C(F)(F)F)c1F [1-37] . Reported pEC50?
Result block: ≥ 5.30

Query block: Item under review: Oc1nc2nonc2nc1Nc1ccc(-c2ccc(F)c(C(F)F)c2)cc1 [1-109] . Reported pEC50?
Result block: ≥ 5.30

Query block: Item under review: Oc1nc2nonc2nc1Nc1ccc(F)c(Br)c1 [1-33] . Reported pEC50?
Result block: 4.70 to 5.30

Query block: Item under review: Cc1ccc(Nc2nc3nonc3nc2O)cc1 [1-58] . Reported pEC50?
Result block: < 4.70

Query block: Item under review: CCc1ccc(Nc2nc3nonc3nc2O)cc1 [1-61] . Reported pEC50?
Result block: 4.70 to 5.30

Query block: Item under review: Oc1nc2nonc2nc1Nc1ccc(-c2ccc(C(F)(F)F)cc2)cc1 [1-130] . Reported pEC50?
Result block: 4.70 to 5.30

Query block: Item under review: COc1ccccc1Nc1nc2nonc2nc1O [1-94] . Reported pEC50?
Result block: < 4.70

Query block: Item under review: Cc1cccc(C)c1Nc1nc2nonc2nc1O [1-56] . Reported pEC50?
Result block: ≥ 5.30

Query block: Item under review: Oc1nc2nonc2nc1Nc1ccc(Br)cc1F [1-43] . Reported pEC50?
Result block: ≥ 5.30

Query block: Item under review: Oc1nc2nonc2nc1Nc1ccc(C(F)(F)F)c(F)c1 [1-42] . Reported pEC50?
Result block: 4.70 to 5.30
